Reference source for all entries: the supplement of paper PMC10567573

Provide the reported protein stability index of each item.
- Method notes: protein stability index of a GFP-peptide fusion (GPS, HEK-293T) (PSI 1-6); higher = more stable;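 also: 24-mer peptide tiles fused after GFP, lentivirally expressed, FACS-sorted into six equal bins by GFP/DsRed ratio, decoded by Illumina sequencing, PSI is the read-weighted mean bin number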
- Measurement setup: treatment: DMSO; c terminus: native
Answers are plain numbers.

Some solved cases for reference:
Could you tell me which protein stability index is on file for IETLIRDMLLSGSSFNWPYMAIQ [NR2F2] ?
3.02

Could you tell me which protein stability index is on file for LFYKPGIVLLLALAKYLKMNNFL [GULP1] ?
2.87

Working through the 4 sequences below one at a time, give protein stability index for each.
1. RSFWELIGEAAKSVKLERPVRGH [S100A14]
2. SGCSSELKNRMEYALNMLLQRCN [PLK2]
3. QEKARQLLGRLKPSHTSRTLILS [MYBL2]
4. GHSHHSHHGHPSHQSHSLPNRRH [C10orf62]

1. 2.82
2. 3.57
3. 2.12
4. 2.97

Working through the 4 sequences below one at a time, give protein stability index for each.
1. SKYGRDWERYTAAVPYRLLPGIF [DHCR7]
2. QEQLLECNKLCGRGQSRQLSPET [SLC2A12]
3. SQVSMWDQRWQDHQPLLPITDVP [APBB1IP]
4. KEIQYLKDLIEEVRKARGKKRVP [ATF4]

1. 2.87
2. 4.21
3. 2.63
4. 2.52

Working through the 2 sequences below one at a time, give protein stability index for each.
1. TVPSAATSQPTPSQHSAHTSSQP [CCDC6]
2. KALEDFEDLCDRVFSDEDSELDN [FAM9B]

5.42
4.98

Could you tell me which protein stability index is on file for YNIKLEGKVPMHKLFLEMLEAKV [ESRRG] ?
2.83

###

Provide the reported protein stability index of each item.
- Method notes: protein stability index of a GFP-peptide fusion (GPS, HEK-293T) (PSI 1-6); higher = more stable
- Measurement setup: treatment: MLN4924 1 uM, 8 h; c terminus: a fixed tail appended

Could you tell me which protein stability index is on file for KTTQEAEKLLERQGQAKTPDSMFL [CDK11A] ?
4.73

Working through the 7 sequences below one at a time, give protein stability index for each.
1. GRLIQLSRDGATGHVLLTDSEFSM [PPFIA4]
2. AEADEPTTHFQSIPDAFWWAVVTM [KCNA4]
3. KYTPSNKHGFSWAVPKFMKRIKVP [DLC1]
4. MERLRELQRASILDMRRDHEEQLQ [FBF1]
5. SVFSARDRDPNSLLISCAVSYRGA [TNXB]
6. GCCKRRYLQKIEEFAEMVEREEED [KCNG1]
7. IEPYITNFFNQVLMLGKTSISDLS [PDS5B]

1. 2.17
2. 2.11
3. 2.6
4. 4.42
5. 2.06
6. 4
7. 2.91

###

- Method notes: protein stability index of a GFP-peptide fusion (GPS, HEK-293T) (PSI 1-6); higher = more stable
- Measurement setup: treatment: DMSO; c terminus: a fixed tail appended
Reported metric: protein stability index
Give bare numbers.

Could you tell me which protein stability index is on file for MEDGSLDITQSIEDDPLLDAQLLP [TMEM192] ?
5.28

Could you tell me which protein stability index is on file for FHCLWDDSFPEGPERLHAIKEQLI [HDAC6] ?
2.47

Could you tell me which protein stability index is on file for ADLLAGFGGSFMAPSPSPVTPAQN [SNAP91] ?
4.16

Could you tell me which protein stability index is on file for DEHEHPLTSELDPEKEQEIETIKI [MIA2] ?
5.33

Working through the 3 sequences below one at a time, give protein stability index for each.
1. AQHKFLVAVESMEPNNIVVLLQTS [TCF25]
2. RVIACQKTAHDSNVLHVARLPNRQ [WDR41]
3. GQQSDTAQLELYQLQVESNSSQLL [SCARA5]

1: 2.58; 2: 3.52; 3: 4.12

Working through the 3 sequences below one at a time, give protein stability index for each.
1. VEVISDTLSKPSPMPVSQECFETL [CHGA]
2. FGRLVANVLKSYIGLGHIYSGTFA [CLCN6]
3. RSSHSSDSGGSDVDLDPTDGKLFP [ELF3]

[3.85, 2.94, 5.34]

Working through the 5 sequences below one at a time, give protein stability index for each.
1. RSSLLACILLSALGYLLLGAATNV [MFSD9]
2. ESRAPSPLLHKDSASLEVVKKDHV [CBY2]
3. ANISIANKYDNTCLMIAAYKGHTD [FEM1B]
4. DKCMVCGGDGSGCSKQSGSFRKFR [ADAMTS4]
5. DQHRLYKQIKAGAYDFPSPEWDTV [CAMK2A]

1. 2.9
2. 5.18
3. 2.75
4. 2.14
5. 3.29

Working through the 5 sequences below one at a time, give protein stability index for each.
1. PDPSVWSRRYTEMALPFFSLAEVR [MYORG]
2. DHLTTVLYLQLAICSSLQNLEKTI [C8orf76]
3. SDLSRSSRGELIPISPSTEVGGSG [MYBL2]
4. AALNMSLGMVTPVNDLRGSDSIAY [ADD1]
5. PADSAQLLSLNSLLPESGIVADIE [TFE3]

[2.52, 3.21, 5, 2.48, 4.93]

Working through the 7 sequences below one at a time, give protein stability index for each.
1. TGTPLVAGSPIRHENAVQGSAVEV [ISL2]
2. LPGGTTGLQLPSTLPVSGNLLDVY [TFE3]
3. EGEEDATSEVDKRRTRPRHHHGRS [CHGB]
4. VSASGKEMDWAQMACHRCLVYLGD [SMG5]
5. RDVAAEAVARSPKRPAWGSRRFEA [POMT2]
6. VGFIMAGTPMALIVISYIHVAAAV [OR3A1]
7. YLLQWLKSDKALMMLFNDGTFQVN [PLK2]

[4.48, 3.24, 5.35, 2.1, 3.73, 3.27, 2.73]

###

Provide the reported protein stability index of each item.
- Method notes: protein stability index of a GFP-peptide fusion (GPS, HEK-293T) (PSI 1-6); higher = more stable
- Measurement setup: treatment: DMSO; c terminus: a fixed tail appended

Some solved cases for reference:
Could you tell me which protein stability index is on file for GATGECQNFLDPGYPLPKLDMNFS [ZNF449] ?
3.47

Could you tell me which protein stability index is on file for AVGAAAEAEADEEADPPASDLPTP [SNX8] ?
5.5

Could you tell me which protein stability index is on file for ILTGCKNMLFQQNKDGIGEICLWG [ACSBG2] ?
3.01

Could you tell me which protein stability index is on file for DYQPTQAGRLMRPSVKYLSHPRVQ [RNF180] ?
3.34

Could you tell me which protein stability index is on file for AYRTQVSSCCLHICQGIRGLWGTT [PKD2L1] ?
2.34

Could you tell me which protein stability index is on file for GAARLALLQGAGLDVERWLKPAMT [FCHSD1] ?
2.5

More entries:
Could you tell me which protein stability index is on file for KCKAEHDQLLLNYAKKESDLNGAQ [LMNB1] ?
4.03

###

- Method notes: protein stability index of a GFP-peptide fusion (GPS, HEK-293T) (PSI 1-6); higher = more stable
- Measurement setup: treatment: MLN4924 1 uM, 8 h; c terminus: a fixed tail appended
Provide the reported protein stability index of each item.
Numbers only.

Some solved cases for reference:
Could you tell me which protein stability index is on file for LDKVKDGGYRPAEDKIFPVPEEPP [ZBED1] ?
5

Could you tell me which protein stability index is on file for RGFFFSHVGWLLVRKHPAVKEKGS [SCD] ?
2.5

Could you tell me which protein stability index is on file for QSPDEKPLVALDTDSDDDFDMSRY [FAM219A] ?
5.46

Could you tell me which protein stability index is on file for EAALNSKDAALATALGDKKSLEGD [LMNB1] ?
5.5

Could you tell me which protein stability index is on file for AGRPSLLRHDEVRTYFHEFGHVMH [NLN] ?
2.45

Working through the 2 sequences below one at a time, give protein stability index for each.
1. LLGALVLLGLGVLLFSGGLSESET [PBXIP1]
2. PPETTETPKCSSPRGQEGSRQDKP [YJU2B]

1: 2.47; 2: 5.54

Working through the 2 sequences below one at a time, give protein stability index for each.
1. ERLAHSRAAAAAAVAAATAAVEGS [KCNA4]
2. WRMLTYKALNTFIDDLFAFVIKMP [CLPTM1]

[4.25, 2.96]

Working through the 6 sequences below one at a time, give protein stability index for each.
1. QVVGQVNVEMDATPGIDLTRVLAE [KRT13]
2. ELSPLALGRFSLTPAEGDTEEDDG [CDC25B]
3. AGLDWQSLGQMKELGVIFYNCSCL [PLD5]
4. NDNSSDLLYDDLYDDDIDDEDEEE [UBE2R2]
5. RPGETGMDVTSRCTLGDPNKLPEG [KLHL20]
6. QWWNAVFIMLLIGIVLPVFYLVYF [LYSMD4]

4.15
5.44
3.26
5.63
5.11
2.14

Working through the 3 sequences below one at a time, give protein stability index for each.
1. ERSARYQYFVVDPMAEYNMPQYIL [PTPRD]
2. SKLVPAIQNAHKNSTGSGRGKKLM [TPRG1]
3. TKGEEISVYVKLAGEREDLWAGSK [MIA2]

1. 2.74
2. 4.58
3. 3.83
